Target: UniProtKB A0A2P1UAH0
Sequence (A0A2P1UAH0 1-839): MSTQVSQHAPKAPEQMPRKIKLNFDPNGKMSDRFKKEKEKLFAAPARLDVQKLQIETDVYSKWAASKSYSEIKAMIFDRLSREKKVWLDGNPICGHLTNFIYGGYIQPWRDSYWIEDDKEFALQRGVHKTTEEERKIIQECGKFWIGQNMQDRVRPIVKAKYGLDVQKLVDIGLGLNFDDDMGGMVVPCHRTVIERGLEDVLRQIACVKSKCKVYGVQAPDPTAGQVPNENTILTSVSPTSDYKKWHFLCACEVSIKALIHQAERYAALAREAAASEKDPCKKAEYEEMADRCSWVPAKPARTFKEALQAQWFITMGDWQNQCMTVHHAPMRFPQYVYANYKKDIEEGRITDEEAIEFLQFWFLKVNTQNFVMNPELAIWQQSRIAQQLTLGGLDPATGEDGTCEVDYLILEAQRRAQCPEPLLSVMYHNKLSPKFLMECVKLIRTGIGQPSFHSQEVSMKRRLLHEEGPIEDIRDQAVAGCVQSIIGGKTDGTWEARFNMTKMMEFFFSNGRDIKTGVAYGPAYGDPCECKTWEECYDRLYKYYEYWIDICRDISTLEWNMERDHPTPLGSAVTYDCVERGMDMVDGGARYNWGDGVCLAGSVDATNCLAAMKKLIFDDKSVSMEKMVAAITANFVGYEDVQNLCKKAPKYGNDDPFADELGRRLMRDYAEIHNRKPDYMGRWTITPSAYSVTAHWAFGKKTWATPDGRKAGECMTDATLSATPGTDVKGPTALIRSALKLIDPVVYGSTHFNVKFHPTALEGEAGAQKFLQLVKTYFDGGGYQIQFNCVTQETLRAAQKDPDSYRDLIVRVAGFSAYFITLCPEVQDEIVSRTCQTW
property_name: pKi
API: returns pKi as number; meaning -log10 of concentration in mol/L.

Measured on UniProtKB A0A2P1UAH0, O=C(O)C(F)(F)c1ccccc1 [α,α‐difluorophenylacetate] has a documented pKi of 3.43
